Give NADPH fluorescence slope for every item shown.
target: Voltage-gated potassium channel subunit beta-2 (Rattus norvegicus) (UniProt P62483); test: enhancers of rat Kvbeta2 NADPH turnover – biochemical, NADPH fluorescence, primary screen (AID 623); details: Recombinant KvBeta, NADPH fluorescence decrease slope, 10 min; at 10 µM; stronger effect = lower value;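 note: fluorescence intensity change per second fitted from 20 to 320 s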
Sequence (P62483 whole entry, looked up): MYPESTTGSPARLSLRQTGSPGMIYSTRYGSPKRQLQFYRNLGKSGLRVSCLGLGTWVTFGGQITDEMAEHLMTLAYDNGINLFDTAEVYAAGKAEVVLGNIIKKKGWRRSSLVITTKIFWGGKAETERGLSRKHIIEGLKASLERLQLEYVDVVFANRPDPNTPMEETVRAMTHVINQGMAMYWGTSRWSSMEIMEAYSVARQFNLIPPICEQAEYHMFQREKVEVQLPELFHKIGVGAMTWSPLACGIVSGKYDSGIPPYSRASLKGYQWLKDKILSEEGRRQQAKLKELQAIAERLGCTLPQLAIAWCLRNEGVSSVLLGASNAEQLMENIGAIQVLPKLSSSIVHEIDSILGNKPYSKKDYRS
// print number alone

Problem: Can you look up the measured NADPH fluorescence slope of CCn1c(C(Cc2ccccc2)NC(=O)COC)nc2ccccc21 (configuration not stated) for me?
Solution: -6.3e-05

Problem: Value lookup for NADPH fluorescence slope; key = "CCOC(=O)c1c(N)nn(C(=O)C(C)C)c1-c1ccccc1"
Solution: -1.3e-05

Problem: Requested read-out: NADPH fluorescence slope. Entry: CCc1ccc(NC(=O)CS(=O)CC(=O)NC(C)CCc2ccco2)cc1 (configuration not stated)
Solution: -1.8e-05

Problem: Can you share its NADPH fluorescence slope? I mean this compound: "CN(C)c1ccc(C(=O)OCC(=O)NC2CCCCC2)cc1"
Solution: -3.6e-05

Problem: Form field: reported NADPH fluorescence slope of "Cc1ccc(-c2cc(C(F)F)n3ncc(C(=O)N4CCN(c5ccccn5)CC4)c3n2)cc1"
Solution: -3e-05

Problem: Which value of NADPH fluorescence slope has been reported for "O=C(NCc1nnc(SCC(=O)N2CCCCCC2)o1)c1ccco1" in the records?
Solution: -2.1e-05

Problem: I am curious: what NADPH fluorescence slope value has been reported for "COc1ccc(NC(C)=O)cc1NC(=O)CN1CCN(c2ccccn2)CC1" ?
Solution: -1.4e-05

Problem: Which measured NADPH fluorescence slope value corresponds to "CNC(=O)c1ccc2nc(NC(C)=O)sc2c1" ?
Solution: -6.5e-05

Problem: Give its NADPH fluorescence slope value. Item: "CC(C)OC(=O)CSc1nnc(-c2ccco2)n1N"
Solution: -2.8e-05

Problem: Any idea what its NADPH fluorescence slope is? The compound is "CC(=O)c1ccc(Oc2cc(C)nc(-n3nc(C)cc3C)n2)cc1"
Solution: 1.9e-05

Problem: Query (compound): "C=CCn1cnc2c(NCc3ccccc3)ncnc21" ; field requested: NADPH fluorescence slope
Solution: 3.1e-05

Problem: Given "CNC(=O)NCCN1CCCC1=O" , state its recorded NADPH fluorescence slope.
Solution: -3.4e-05

---

assay: reduction of polyQ htt aggregates in cells – imaging, exon1htt(103Q)mCFP cells, high-content imaging, primary screen (AID 483); details: exon1htt(103Q)mCFP cell line, aggregate imaging, at 2 µM; measured here: cell count, toxicity;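 note: compound exposure lasted 3 days before fixation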;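 for nuclei count: percent of the per-plate median nuclei count of sample wells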
Answer each item with its documented nuclei count.
Your answer is read as %, so omit the unit and give the number.

Problem: Return reported nuclei count; argument: "Cc1nn(-c2ccccc2)c2[nH]c(C(F)(F)F)cc(=O)c12"
Solution: 103

Problem: Query (compound): Cc1cc(NC(=O)CSc2nc(C3CC3)nc3sc4c(c23)CCC(C)C4)no1 (stereo unspecified) ; field requested: nuclei count
Solution: 75.3

Problem: Could you tell me which nuclei count is on file for COc1cccc(C2C(C(=O)c3cccs3)=C(O)C(=O)N2CCCn2ccnc2)c1OC (stereo unspecified) ?
Solution: 96.7

Problem: Need nuclei count of "COc1cccc(C=Nc2ccc3c(c2)OCCO3)c1O" , thanks.
Solution: 97.3

Problem: Endpoint output: nuclei count of "CC(=O)c1ccc(N2CCN(C(=O)c3cc(C)on3)CC2)cc1" . Value?
Solution: 102

Problem: I'd like to know its nuclei count. The compound in question is "O=C(Nc1ccccc1C(=O)N1CCOCC1)c1ccncc1"
Solution: 107

---

assay: reduction of polyQ htt aggregates in cells – imaging, exon1htt(103Q)mCFP cells, high-content imaging, primary screen (AID 483); conditions: exon1htt(103Q)mCFP cell line, aggregate imaging, at 2 µM; stronger effect = higher value;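 note: compound exposure lasted 3 days before fixation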
Provide the reported inhibition of aggregation of each item.
Give just the number in %; leave the unit off.

Problem: Find the recorded inhibition of aggregation belonging to "CC(=O)/C(C[N+]1(C)CCCCC1)=N\O" and report it.
Solution: 17.4

Problem: I have this compound here, "Cc1cccc(C)c1NC(=O)c1cc(S(=O)(=O)N2CCOCC2)ccc1F" , and I need its recorded inhibition of aggregation.
Solution: -3.7

Problem: I have this compound here, "CCCCCCn1c(CN2CCN(Cc3ccccc3)CC2)nc2c1c(=O)n(C)c(=O)n2C" , and I need its recorded inhibition of aggregation.
Solution: 9.8

Problem: Report inhibition of aggregation for O=C(NC1CCCCCC1)C1CCCN(S(=O)(=O)c2cccs2)C1 (stereo unspecified) please.
Solution: -1

Problem: For "CCCCn1c(CN2CCN(c3ccc(F)cc3)CC2)nc2c1c(=O)n(C)c(=O)n2C" , what is its reported inhibition of aggregation?
Solution: 1.3

Problem: Which value of inhibition of aggregation has been reported for "COc1ccc(C(=O)N2CCOCC2)cc1Br" in the records?
Solution: 5.4

---

test: endothelial E-selectin expression blockers – imaging, HUVEC, immunofluorescence, MLSMR starter and 10KST1 sets, primary screen (AID 487); settings: HUVEC TNFalpha-induced E-selectin immunofluorescence imaging, at 2 µM; stronger effect = higher value;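 note: signal is fraction of cell area covered by stained E-selectin grains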
Activity calls are given as the source filed them.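 Rule for the calls: active = visually confirmed hit in the image check and inhibition above 20%; inconclusive = visually confirmed hit but inhibition not above 20%; inactive = no visual hit in the image check.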
readout kind: inhibition

Problem: Can you share its inhibition? I mean this compound: "COc1ccc(/C=N/n2c(=O)[nH]c3c([nH]c4ccc(C)cc43)c2=O)cc1CN1CCOCC1"
Solution: 4.3% (inactive)

Problem: Returns the measured inhibition for the input compound. Input: "Cc1ccc(C)c(N(CC(=O)NC2CCCC2)C(=O)CCCC(=O)Nc2ccccn2)c1"
Solution: -50.6% (inactive)

Problem: Entry "CCCn1c(SCC(=O)NCCc2ccccc2)nnc1-c1ccccn1" has what inhibition?
Solution: -28.9% (inactive)

Problem: Can you share its inhibition? I mean this compound: "COc1ccccc1C(=O)Nc1ccc(N2CCN(Cc3ccccc3)CC2)cc1"
Solution: 19.4% (inactive)

Problem: I am curious: what inhibition value has been reported for "Cc1noc(C)c1CSc1nnc(-c2ccncc2)n1-c1cccc(Cl)c1C" ?
Solution: 51.9% (inactive)

Problem: // inhibition lookup, key: "Cc1cc(=O)c2n(Cc3ccccc3Cl)nc[n+]2[nH]1"
Solution: -111% (inactive)

Problem: For the compound shown here, "Nc1c(C(=O)NCCc2ccccc2)nnn1Cc1ccccc1" , give the reported inhibition.
Solution: -6.5% (inactive)

Problem: Item "Fc1ccc(-c2nnc(CN3CCN(c4ncc(C(F)(F)F)cc4Cl)CC3)o2)cc1" has what recorded inhibition?
Solution: -9.8% (inactive)

Problem: Item under review: "O=C(O)CCc1ccc(-c2cccs2)n1CCC(=O)O" . Reported inhibition?
Solution: -43% (inactive)

Problem: What inhibition value was documented for this compound, "O=C(Nc1cccc(Cl)c1)N1CCN(c2ncccn2)CC1" ?
Solution: 19.1% (inactive)

Problem: Data request, read-out inhibition, for "Cc1[nH]nc(-c2ccc(O)c(C)c2O)c1-c1cnn(-c2ccccc2)c1"
Solution: 45.5% (inactive)

Problem: Given "CCSc1nnc(-c2ccc(OC)cc2)o1" , state its recorded inhibition.
Solution: 61.5% (inactive)

Problem: Could you share which inhibition value was measured for "COc1ccc(C(=O)NCc2nnc(SC)n2C2CCCCC2)cc1" ?
Solution: -35.7% (inactive)

Problem: Fill in: inhibition of "CCc1nccn1S(=O)(=O)c1ccc(C)c(C)c1" is ___
Solution: -33% (inactive)

Problem: inhibition lookup needed for "CCn1cc(C(=O)NCc2ccccc2OC)c(=O)c2cc(S(=O)(=O)N(C)C)ccc21" , thanks.
Solution: -39.5% (inactive)

Problem: Reported inhibition, compound Cc1cnc(-c2nnc(N(C)C(=O)C3CCOC3)s2)cn1 (stereo not drawn) : ____
Solution: 41.6% (inactive)

Problem: Quick check: inhibition of "Cc1ccc(S(=O)(=O)CC(=O)N2CCCCCC2)cc1" ?
Solution: -33% (inactive)

Problem: I have this compound here, CCOc1ccccc1C1CC(=O)Nc2cc3c(cc21)OCO3 (stereo not drawn) , and I need its recorded inhibition.
Solution: -9.8% (inactive)

Problem: Dear colleague, I am looking for the recorded inhibition of the following compound: "COC(=O)c1[nH]c2cc(OC)ccc2c1NC(=O)CN1CCOCC1"
Solution: -117% (inactive)

Problem: Name the recorded inhibition for "Cc1ccc(S(=O)(=O)N2CCOCC2)cc1C(=O)Nc1ccccn1" .
Solution: -75.1% (inactive)

Problem: State the recorded inhibition for this entry: "COCCNc1nc(C(C)(C)C)nc2c1nnn2Cc1ccccc1Cl"
Solution: 14.6% (inactive)

Problem: Give its inhibition value. Item: "O=C(NCc1nnc(SCC(=O)N2CCCCCC2)o1)c1ccco1"
Solution: -52.2% (inactive)

Problem: // inhibition lookup, key: "Cc1nc2c(=O)oc3ccccc3c2n1-c1ccccc1"
Solution: 33% (inactive)

---

test: inhibitors of TNFa-induced NFkB p65 translocation, primary screen, imaging, HUVEC, MLSMR starter and 10KST1 sets (AID 438); settings: HUVEC TNFa-induced p65 nuclear translocation; at 2 µM, stronger effect = higher value, 0% TNFa-plus-vehicle, 100% no-TNFa wells;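 note: compound added about 3h40 before a 20 min TNFalpha stimulation; signal is the nuclear over cytoplasmic p65 intensity ratio per well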
What inhibition was measured for each of the following?
Write the answer as a number in %, unit excluded.

Problem: For the compound "O=C(NCCCN1CCN(Cc2ccccc2)CC1)C1CCN(c2nnc(-n3cccc3)s2)CC1" , what inhibition is on record?
Solution: -11.8

Problem: Name the recorded inhibition for "CC(=O)c1cccc(NC(=O)NCc2ccccn2)c1" .
Solution: -6.1

Problem: Query: inhibition; subject: "Cc1cccn2c(=O)c3cc(C(=O)N4CCCc5ccccc54)n(C)c3nc12"
Solution: 15.9

Problem: For COc1ccccc1N1CCN(C(CNS(=O)(=O)c2cc(F)ccc2F)c2cccnc2)CC1 (stereo unspecified) , what is its reported inhibition?
Solution: 7.2

Problem: Endpoint output: inhibition of "Cc1cnc(C(=O)Nc2ccccc2-n2cccc2)cn1" . Value?
Solution: 6

Problem: Could you tell me which inhibition is on file for CC1CCCN(C(=O)CN2CCN(C(=O)c3ccco3)CC2)C1 (stereo unspecified) ?
Solution: 0.4
